B1: HDV Ribozyme (parent)
chain: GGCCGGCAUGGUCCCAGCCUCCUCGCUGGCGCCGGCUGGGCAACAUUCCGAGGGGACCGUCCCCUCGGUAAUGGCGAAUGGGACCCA

Variants of: B1
Assay: self-cleavage, relative activity (ratio to wild type); higher = more cleavage; co-transcriptional
Recorded self-cleavage determines the group label, using lower = under 0.1, middle = from 0.1 up to 0.5, upper = 0.5 and over

Ask: Kindly state the category for this variant: C7G A87U
Reply: middle

Ask: Which category fits this record: C15A G40U
Reply: middle

Ask: The entry to classify is C24A C62G ; which class holds it?
Reply: upper

Ask: Input C22U A87U ; output its category
Reply: upper

Ask: For this variant, which bin applies? C36U G53C
Reply: upper

Ask: Each variant maps to one class by self-cleavage. Which class for C49A G55A ?
Reply: upper

Ask: Hello team, could you let me know which band the following variant falls into: U60C A78G
Reply: upper

Ask: Classify this variant: G2A U20C
Reply: lower

Ask: Which band does U23G G40U fall in?
Reply: middle

Ask: Dear colleague, I would appreciate it if you could identify the bin for C13A C30A and reply at your convenience.
Reply: lower

Ask: Exercise: read the entry A16U G34C and state which class it falls under.
Reply: middle

Ask: Band for the recorded self-cleavage of G29U U37G ?
Reply: lower

Ask: Each variant maps to one class by self-cleavage. Which class for G74C A78C ?
Reply: middle

Ask: Category of U37G G38A :
Reply: middle

Ask: Please indicate the class for A16U A45U based on its self-cleavage.
Reply: upper

Ask: Consider A8U G80U . To which self-cleavage class does it belong?
Reply: lower

Ask: Class? Entry: G11A C33U
Reply: middle

Ask: Category of G40U A83C :
Reply: middle

Ask: Which of the defined bands does the recorded self-cleavage of G34C G80A sit within?
Reply: middle

Ask: Please report the category associated with A45C U47G , nothing else.
Reply: upper

Where these numbers come from: the RNAGym collection of RNA variant scans (doi:10.7554/elife.80360)
